run-description: Oral bioavailability in Sprague-Dawley rat at 32 mg/kg measured up to 24 hrs
Type: ADME, organism-based
experimental-conditions: in vivo
measurement-label: bioavailability (%)
Give bare numbers, in %.

Incoming: Please give the documented bioavailability of Cc1c(Cc2ccc(C(F)(F)F)nc2)c[nH]c1C(=O)NC(C)c1cnn(C)c1 (stereo in doubt; form 1)
Outgoing: 61

* * *

run-description: Half life in Swiss mouse at 10 mg/kg, po measured up to 24 hrs by LC-MS analysis
Type: ADME, organism-based
experimental-conditions: in vivo
measurement-label: half-life (min)
Answers are plain numbers, in min.

Incoming: Please give the documented half-life of Cc1cc(Nc2ccc(S(F)(F)(F)(F)F)cc2)n2nc(C(F)(F)F)nc2n1
Outgoing: 150
